Taken from ChEMBL document CHEMBL1149220.

- assayed target: Coagulation factor X (Homo sapiens, UniProt P00742)
- Sequence (P00742 41-179 limits assumed): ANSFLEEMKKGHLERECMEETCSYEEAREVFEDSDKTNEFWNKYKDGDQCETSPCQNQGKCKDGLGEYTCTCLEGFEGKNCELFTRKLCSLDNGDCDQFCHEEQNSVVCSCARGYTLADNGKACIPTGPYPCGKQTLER
- Sequence (P00742 235-488 limits assumed): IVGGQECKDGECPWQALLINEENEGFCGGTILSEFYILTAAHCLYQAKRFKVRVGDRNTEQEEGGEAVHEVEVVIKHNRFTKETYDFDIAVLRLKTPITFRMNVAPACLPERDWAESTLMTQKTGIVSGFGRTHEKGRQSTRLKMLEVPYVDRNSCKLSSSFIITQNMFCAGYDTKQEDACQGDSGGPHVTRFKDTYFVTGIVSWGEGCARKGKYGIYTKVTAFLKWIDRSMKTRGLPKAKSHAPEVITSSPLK
The entries below come with measured pIC50 values attached.
FYI, pIC50 means -log10 of a concentration in mol per litre.

Cc1cc(C(=O)Nc2ccc(-c3cccc(CN)c3)cc2)n(-c2ccc3cc(Cl)ccc3c2)n1	7.15
Cc1cc(C(=O)Nc2ccc(N3CCN(C)CC3)cc2)n(-c2ccc3cc(Cl)ccc3c2)n1	6.78
Cc1cc(C(=O)Nc2ccc(-n3ccnc3C)cc2F)n(-c2ccc3cc(Cl)ccc3c2)n1	7.82

Attention now shifts to the item below.
Notebook entry, Coagulation factor X (Homo sapiens, UniProt P00742) assay: pIC50 of Cc1cc(C(=O)Nc2ccc(-c3ccccc3S(N)(=O)=O)cn2)n(-c2cc3ccccc3cc2S(C)(=O)=O)n1 = ?
7.34
